B1: VAMP4 (parent)
chain: FLRGPSGPRFGPRNDKIKHVQNQV

Variants of: B1
assay.summary: protein stability index of a GFP-peptide fusion (GPS, HEK-293T) (PSI 1-6); higher = more stable;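 further: lentivirally expressed fusions sorted by FACS into six bins by GFP to DsRed ratio, PSI derived from sequencing read proportions per bin multiplied by bin number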
stated.conditions: c terminus: a fixed tail appended
Answer f if protein stability index is under 3, and t if it is 3 or more.

Input: Could you tell me if the measured protein stability index of FLRGHSGPRFGPRNDKIKHVQNQV [P5H] reaches 3 or more?
Output: t

Input: Is the recorded value of protein stability index equal to or greater than 3 for this variant? FLRGPSGPRFGPRNDKIWHVQNQV [K18W]
Output: f

Input: Reported protein stability index at or above 3? FLRGPSGPRFGERNDKIKHVQNQV [P12E]
Output: t

Input: Say whether FLRGPSGPRFGPRNDKLKHVQNQV [I17L] shows protein stability index of 3 or more.
Output: f

Input: hey, is protein stability index for this one >= 3? FERGPSGPRFGPRNDKIKHVQNQV [L2E]
Output: t

Input: Does the reported protein stability index for FLRGVSGPRFGPRNDKIKHVQNQV [P5V] fall at or above the 3 mark?
Output: f

Input: Quick check, protein stability index >= 3? FLRGPSGPRFGPRNDIIKHVQNQV [K16I]
Output: f
